Origin of the recorded values: the nanobody polyreactivity screen of Harvey et al. (2022)

assay: yeast display, Sf9 membrane polyspecificity reagent, FACS + sequencing; frameworks hold sequencing errors
quantity.name: polyreactivity (PSR sort gate)

Sample answers from the record:
QVQLVESGGGLVQAGGSLRLSCAASGFTFHNYAMGWYRQAPGKERELVAVIRWRGGSTYYADSVKGRFTISRDNAKNSVYLQMNSLKPEDTAFYYCAKRARGSYYWGYNYWGQGTQVTVSS :: high polyreactivity
QVQLVESGGGLVQAGGSLRLSCAASGRIFWDYAMGWYRKAPGKERELVAVITFSGDSTYYADSVKGRFTISRDNAKNTVYLQMNSLKPEDTAVYYCAAARAIRQFWYVATFEYWGQGTQVTVSS :: low polyreactivity
HVQLVESGGGLVQAGGSLRLSCAASVITFVPYAMGWYRQATGKERELVAAISWSGGSTYYADSVKGRFTISRDNAKNTVYLQMNSLKPEDTAVYYCAAQHDVRYDYWGQGTQVTVSS :: low polyreactivity
QVQLVETGGGLVQAGGSLRLSCAASGFIFRYYAMGWYRPAPGKERELVAVISSNGARTSYADSVKGRFTISRDNAKNTVYLQMNSLKPEDTADYYCNARAWSRFPPVGHDYWGQGTQVTVSS :: high polyreactivity
QDQLVESGGGLVQAGGSLRLSCAASGSIFGRYAMGWYRQAPGKERELVANITSGDSTNYADSVKGRFTISRDNAKNTVYLQMNSLKPEDTAVYYCAADTIYFYYYRHWYSKYYYWGQGTQVTVSS :: high polyreactivity
QVQRVESGGGLVQAGGSLRLSCAASGANFSRYAMGWYRPAPGKERELVAAITSGGSTNYADSVKGRFTISRDNAKNTVYLQMTSLKPEDTAVYYCNKRYVVYPGNYWRYDYWGQGTQVTVSS :: high polyreactivity
QVQLVDSGGGLVQAGGSLRLSCAASGSTFDPYTMGWYRQAPGTERELVAGMTGGGSTYYADCVKGRFTISRDNAKNTVYLQMNSLKPEDTAVYYCARDYSYYKGPDGHYWGQGTQVTVSS :: low polyreactivity
QVQLVESGGGLVQAGGSLRLSCAASGSTFVAYAMGWYRQAPGKERELVAAISSVGRTNYADSVKGRFTISRDNAKNTVYLQMNSLIPEDTAVYYCNVEPGGITRQEYDYWGQGTQVTVSS :: high polyreactivity
QEQHVESAGGLVQAGGSLRLSCAASASIIYKYAMGWYRQAPGKERELVAAINSGGRTYYADSVKGRFTISRDNAKNTVYLQMNSLKPEDTAVYYCNAGTYYPGRYDYWGQGTQVTVSS :: high polyreactivity
QVQLVESGGGLVQAGGSLRLSCAASGRILYRYAMGWYRQAPGKERELVAAISRSGGDTYYADSVKGRFTISRDNAKNTVYLQMNSLKPEDTAVYYCAASFEGSGYRYDYWGQGTQVTVSS :: low polyreactivity

Now take the following sequence into account.
Req: Write down polyreactivity (PSR sort gate) measured for item QVQLVESGGGLVQAGGSLSLSCAASGRTFYVYAMGWYIQAPGKERELVATISRGGSTTYADSVKGLFTISRDNAKNTVYLQMNSLKPEDTAVYYCATELLGGRRTVAYFWGQGSQVTVSS
Resp: low polyreactivity

###

experiment: yeast display, Sf9 membrane polyspecificity reagent, FACS + sequencing; frameworks hold sequencing errors
quantity.name: polyreactivity (PSR sort gate)

Use these answered entries as a reference point.
QVQLVESGGGLVQAGGSLRLSCAASGGTFDVYTMGWYRPAPGKERELVAAISSSGARTYYADSVKGRFTISRDNAKNTVNLQMNSLKPEDTAVFYCATRSLGLRWHYYYWGQGTQVTVSS :: high polyreactivity
QVQLVESGGGLVQAGGSLRLSCAASGRIFHYNDMVWYRQAPGKEREFVATIRYSGGSTYYADSVKGRFTISRDNAKNTVYLQLNSLKPEDTAVYYCATSRRYLRFRNYYGYDYWGQGTQVTVSS :: high polyreactivity
QVQLVESGGGLVQAGGSLRLSCAASGRTLSTNGMGWYRQAPGKERELVATITRRGGRTYYADSVKGRFTISRDNAKNTVYLQMNSLKPEDTAVYYCATEQADRRVTYNYWGQGTQVTVSS :: high polyreactivity
QVQLVESGGGLVQAGGSLRLSCAASGSTFGKYAMGWYRQAPGKERELVATISWSGTSTYYADSVKGRFTISRDNAKNTVYLQMNSLKPEDTAVYYCAADSEGVGVKHIYDYWGQGTQVTVSS :: low polyreactivity
QVQLVESGGGLVQAGGSLRLSCAASGRTLYLYAMGWYRQAPGKERELVAGITWSGGSTYYADSVKGRFTISRDNAKNTVYLQMNSLKPEDTAVYYCAAVSYPDYDYWGQGTQVTVSS :: low polyreactivity

Req: Look up and state reported polyreactivity (PSR sort gate) for QVQLVESGGGLVQAGGSLRLSCAASGGTFAYYAMGWYRQAPGKERELVAVISRRGTSTYYADSVKGRFTISRDNAKNTVYLQMNSLKPEDTAVYYCNARTWDHPYGYWGQGTQVTVSS
Resp: high polyreactivity

Req: Specify measured polyreactivity (PSR sort gate) for QVQLVESGGGLVQAGGSLRLSCAASGSTFDTYAMGWYRPAPGKERELVAAINSGGGTNYADSVKGLFTISRDNAKNTVYLQMNSLKPEDSSVYYCSTDIRRDAGGVDFDYWGQGTQLTVSS .
Resp: low polyreactivity

Req: Supply measured polyreactivity (PSR sort gate) of QVQLVESGGGLVQAGGSLRLSCAASGRIFLGYAKGWYRQAPGKERELVAAINRSGSSTYYADSVKGRFTISRDIAKNTVYLQMNSLKPEHSAVYYCNARSGNRYGPRYDYWVQGTQVTVSS in your reply.
Resp: high polyreactivity

Req: Could you please provide reported polyreactivity (PSR sort gate) for QVQLVESGVGLVQAGGSLRLSCAASGSTFQPYSMGRYRQAPGKERELVAAIRSLAGSTYYADSVKGRFTISRDNAKNTVYLQMNSLKPEDTAVYYCAAGYNPYVGLGWYPIYDFWGQGTQVTVSS ? Thanks!
Resp: low polyreactivity

Req: Specify measured polyreactivity (PSR sort gate) for QVQLVESGGGLVQAGGSLRLSCAASGITFNSYAMGWYRQAPGKERELVAAISWSGGSTYYADSVKGRFTISRDNAKNTVYLQMNSLKPEDTAVYYCNAEYRYYQKTPGRYTNVEYDYWGQGTQVTVSS .
Resp: low polyreactivity

Req: Give polyreactivity (PSR sort gate) for QVQLVESGGGLVQAGGSLRLSCAASGRTFPNVMGWYRQAPGKERELVAAISSSVGSTSYADSVKGRFTISRDNAKNTVYLQMNSLKPEDTAVYYCAARYYYRDWVGIISTYYYWGQGTQVTVSS
Resp: high polyreactivity

Req: Input QVQLVESGGGLVQAGGSLRLICAASGRIFNRNAMGWYRQAPGKERELVASISSGGRTNYADSVKGRFTISRDNAKNTVYLQMNSLKPEDTAVYYCAAKSPRILLDYWGQGTQVTVSS , output reported polyreactivity (PSR sort gate).
Resp: low polyreactivity

Req: Identify measured polyreactivity (PSR sort gate) associated with QDQLVESGVGIVQAGRSLRLSCAASGFTFSGYAMGWDRQAPGKERELVAAINWRGDSTYYADSVKGRFTISRDNAKNTVYLQMNSLKPEDTAVYYCNVVLGPQRYSTDYGYWGQGTQVTVSS
Resp: high polyreactivity

Req: Report polyreactivity (PSR sort gate) for QVQLVESGGGLVQAGGSLRLSCAASGSTFGVNAMGWYRQAPGKERELVAVITRSGGSTYYADSVKGRFTISRDNAKNTVYLQMNSLKPEDTAVYYCAKSGVVDWGQGTQVTVSS
Resp: low polyreactivity

Req: For the sequence HVQLQESGGGLVQAGGSLRLSCAASGNISYSRNMGWYRQAPGKERELVAAIDRGAITYYADSVKGRFTISRDNAKNTVYLQRYSLKPEDTAVYYCAAEYHDRWDHRYWGQGTQVTVSS , give its measured polyreactivity (PSR sort gate) value.
Resp: high polyreactivity

###

assay: yeast display, Sf9 membrane polyspecificity reagent, FACS + sequencing; frameworks hold sequencing errors
quantity.name: polyreactivity (PSR sort gate)

QVHLVESGGGLVQAGGSLRLSCAASGRNFLYYAMGWYRQAPGKERELVAASTSGDSTYYADSVKGRFTISRDNAKNTVYLQRNSLKPEDTAVYYCNAYQWGGRYWLVTYDYWGQGTLVTVSS :: low polyreactivity
QVQLVESGGGLVQAGGSLRLSCAPSGIIFYVYAIGWYRQAPGMERELVADITYGDRTNYADSVNGRFTISRDNAKNTVYLQMNSLKPEDTAVYYCAAKRNVLLGYTDQSLYDYWGQGTQVTVSS :: low polyreactivity

###

assay: yeast display, Sf9 membrane polyspecificity reagent, FACS + sequencing; frameworks hold sequencing errors
quantity.name: polyreactivity (PSR sort gate)

QVQLVESGGGLVQAGGSLRLSCAASGYIFNYYGMGWYRQAPGKDRELVATISRGASTNYADSVKGRFTISRDNARNTVYFQMNTLKPEDTAVYYCAYWGQRTQVTVSS :: low polyreactivity
QVQLVESGGGLVQAGGSLRLSCAASGSTFDPNTKGWYRQAPGKERELVATITSVDSTNYADSVKGRFTISRDNANNTVYLQMNSLKTEDTAVYYCNADFVRVFFYAYDYWGQGTQVTVSS :: low polyreactivity
QVQLVESGGGLVQAGGRLRLSCAASGSIFASYALGWYRQAPGKERELVAVITRSGGSTYYADSVKGRFTISRDNAKNTVYLQMNSLKPEDTAVYYCAAQYGRTYYSRREYWGQGTQVTVSS :: high polyreactivity
QVQLVESGGGLVQAGGSLRLSCAASGRIFDIYAMGWYRQAPGKERELVAAIDESGGSTYYADSVKGRFTISRDNAKNTVYLQMNSLKPEDTAVYYCATVDTWTISYGWYCFTYEYWGQCTQVTVSS :: low polyreactivity
QVQLQESVGGLVQAGGSLRLSCAASGNIFPTDRMGWYRQAPGKELEFVATISHGGSTNYADSVKGRFTISRDNAKNTVYLQMNSLKPEDTAVYYCAVWSLGRWRHYYWGQVTQVTVSS :: low polyreactivity

Req: Check the records and state polyreactivity (PSR sort gate) for QVQLVESGGGLVQAGGSLRLSCAASGYTFAWYAMGWYRQAPGKERELVAAITVSGGSTYYADSVKGRFTISRDNAKNTVYLQMNSLKPEDTAVYYCAAVGKSPSRFGYWGQGTQVTVSS
Resp: low polyreactivity

Req: Answer with reported polyreactivity (PSR sort gate) of QVQLVESGGGLVQAGGSLRLSCAASGRIFSYNAMGFYRQAPGKERELVAGITYGSTYYADSVKGRFTISRDNAKNTVYLQMNSLKPEDTAVYYCAADLSYTSVHGYRSDTLMDYWGQGTQVTVSS
Resp: low polyreactivity

Req: Give me measured polyreactivity (PSR sort gate), please, for this sequence: QVQLVESGGALVQAGGSLRLSCAASGIVFKRYAMGWYRQAPGKEREFVATISYTGGRTYYADSVKGRFTISRDNAKNTVYLQMNSLKPEDTAVYYCATLYRSSKHQPLDYWGQGTQVNVSS
Resp: high polyreactivity

Req: In one line, give reported polyreactivity (PSR sort gate) of the entry QGQLVESGGGLVQAGGSLRLSCAASGSIFPYNDMGWYRQAPRKERELFAAINSDGSTDYADSVKGRFTISRDNAKNTVYLLMKSLKPEDTAVYDCNGDYVATFLSPPTSVSYGYWGQVTQVTVSS .
Resp: low polyreactivity

Req: # return recorded polyreactivity (PSR sort gate) for entry QVQLVESGGGLVQAGGSLRLSCAASGRTFQTYAMGWYRQAPGKERELVAAISKSGGGTYYADSVKGRFTISRDNAKNTVYLQMNSLKPEDTAVYYCATAGYHYRAWGGRYDYWGQGTQVTVSS
Resp: high polyreactivity
